Just for reference, patent US5620676A is where these values come from.

assayed.target: P2Y receptor (turkey erythrocyte membranes) (Meleagris gallopavo)
Construct: from tissue; host or cells: washed turkey erythrocytes, ghosts prepared by hypotonic lysis
Sequence (P49652 whole entry): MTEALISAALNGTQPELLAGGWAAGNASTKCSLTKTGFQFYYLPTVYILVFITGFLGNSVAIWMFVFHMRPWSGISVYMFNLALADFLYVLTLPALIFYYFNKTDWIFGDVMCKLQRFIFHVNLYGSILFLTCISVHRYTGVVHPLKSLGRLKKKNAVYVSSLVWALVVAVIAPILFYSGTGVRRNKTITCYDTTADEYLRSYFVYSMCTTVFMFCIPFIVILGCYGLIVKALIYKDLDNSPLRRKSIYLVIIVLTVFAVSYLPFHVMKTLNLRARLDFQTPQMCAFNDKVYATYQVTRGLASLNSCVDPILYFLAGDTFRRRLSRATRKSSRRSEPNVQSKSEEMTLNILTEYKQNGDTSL
assay.name: Stimulation of phospholipase C (inositol phosphate formation) in turkey erythrocyte membranes
Type: biochemical
experimental.setup: turkey erythrocyte membranes; mean ± S.E.M. for at least 2 determinations; read-out: phosphatidyl inositol metabolism (K0.5, nM) erythrocyte
parameter: EC50

The measured EC50 associated with O=c1[nH]c(=O)n([C@@H]2O[C@H](COP(=O)(O)OP(=O)(O)OP(=O)(O)O)[C@@H](O)[C@H]2O)cc1F [5-F-UTP, 5-Fluorouridine 5'-triphosphate] reads > 100000 nM

For reference, reported EC50 for CC1(C)O[C@@H]2[C@H](O1)[C@@H](COP(=O)(O)O)O[C@H]2n1cnc2c(N)ncnc21 [2',3'-Isopropylidene-AMP, 2',3'-Isopropylidene AMP] stands at > 100000 nM

molecule C=CCCCCSc1nc(NC)c2ncn([C@@H]3O[C@H](COP(=O)(O)O)[C@@H](O)[C@H]3O)c2n1 [N^6 -Me-2-(5-hexenyl)-thio-AMP] , EC50 observed: > 100000 nM

EC50 reported for this molecule Nc1ncnc2c1ncn2[C@@H]1O[C@H](COP(=O)(O)OP(=O)(O)OP(=O)(O)O)[C@@H](NC(=O)CCc2ccc(O)cc2)[C@H]1O : > 100000 nM
